Values were extracted from ChEMBL document CHEMBL4831540.

# MEASUREMENT_NOTES: Bioavailability in Sprague-Dawley rat at 2 to 6 mg/kg, po and 1 mg/kg, iv
# CONDITION_INFO: in vivo
RECORDED_METRIC: bioavailability (%)
State the answer as a number, implicitly in %.

Ask: So what does the record say about bioavailability for `CCc1nc(-c2ccc3c(c2)CC[C@H]3NC(=O)c2nnn(C)n2)no1` ?
Reply: 53

###

# MEASUREMENT_NOTES: Tmax in Sprague-Dawley rat at 3 mg/kg, po
# Format: ADME, organism-based
# CONDITION_INFO: in vivo
RECORDED_METRIC: Tmax (min)
Form entry: value (min) — number only.

Ask: Which Tmax is listed for CCc1nc(-c2ccc3c(c2)CC[C@H]3NC(=O)c2cnn(C)c2)no1 [AFICAMTEN] ?
Reply: 25.2

###

# MEASUREMENT_NOTES: Oral bioavailability in Sprague-Dawley rat at 3 mg/kg
# Format: ADME, organism-based
# CONDITION_INFO: in vivo
RECORDED_METRIC: bioavailability (%)
Value expressed in %; do not type the unit.

Ask: Please give the measured bioavailability for this molecule: CCc1nc(-c2ccc3c(c2)CC[C@H]3NC(=O)c2cnn(C)c2)no1 [AFICAMTEN]
Reply: 58

###

# MEASUREMENT_NOTES: Clearance in Sprague-Dawley rat at 1 mg/kg
# Assay type: ADME, organism-based
# CONDITION_INFO: in vivo
RECORDED_METRIC: clearance (L/h/kg)
Provide the reading as a plain figure in L/h/kg.

Ask: Could you tell me which clearance is on file for `Cc1cc(C(=O)N[C@@H]2CCc3cc(-c4noc(C5CC5)n4)ccc32)ccn1` ?
Reply: 0.18

Ask: Request the reported clearance associated with `Cc1cc(C(=O)N[C@@H]2CCc3cc(-c4noc(C(C)C)n4)ccc32)ccn1`
Reply: 0.84

Ask: What does the record list as clearance for `CC(C)c1nc(-c2ccc3c(c2)CC[C@H]3NC(=O)c2nnn(C)n2)no1` ?
Reply: 0.96

Ask: What does the record list as clearance for `CCc1nc(-c2ccc3c(c2)CC[C@H]3NC(=O)c2nnn(C)n2)no1` ?
Reply: 1.2

Ask: GET /values?readout=clearance&item= `CCc1nc(-c2ccc3c(c2)CC[C@H]3NC(=O)c2ccnc(C)c2)no1`
Reply: 0.78

Ask: Item `CCc1nc(-c2ccc3c(c2)CC[C@H]3NC(=O)c2ocnc2C)no1` has what recorded clearance?
Reply: 2.4

Ask: # input compound: `Cn1nnc(C(=O)N[C@@H]2CCc3cc(-c4noc(C5CC5)n4)ccc32)n1` ; wanted: its clearance
Reply: 0.3

###

# MEASUREMENT_NOTES: Oral bioavailability in cynomolgus monkey at 1 mg/kg
# Type: ADME, organism-based, Macaca fascicularis
# CONDITION_INFO: in vivo
RECORDED_METRIC: bioavailability (%)
# output: bare number, implied unit %

Ask: Requested read-out: bioavailability. Entry: `CCc1nc(-c2ccc3c(c2)CC[C@H]3NC(=O)c2cnn(C)c2)no1`
Reply: 41

###

# MEASUREMENT_NOTES: Inhibition of full-length myosin ATPase activity in bovine cardiac myofibrils
# Type: subcellular, Bos taurus, Heart
RECORDED_METRIC: pIC50
For clarity, pIC50 is expressed as the negative log10 of concentration in mol/L.

Ask: Report pIC50 for `CCc1nc(-c2ccc3c(c2)CC[C@H]3NC(=O)c2cnn(C)c2)no1` please.
Reply: 5.85

Ask: Which pIC50 is listed for `CCc1nc(-c2ccc3c(c2)CC[C@H]3NC(=O)c2ccnc(C)c2)no1` ?
Reply: 5.92

Ask: Any idea what its pIC50 is? The compound is `COCc1nc(-c2ccc3c(c2)CC[C@H]3NC(=O)c2cnn(C)c2)no1`
Reply: 5.17
